I'd be grateful if you could share measured IC50 for these entries.
- measurement.target: Mcl-1 protein (UniProtKB primary accession number: Q07820) (Homo sapiens, UniProt Q07820)
- Sequence (Q07820 whole entry): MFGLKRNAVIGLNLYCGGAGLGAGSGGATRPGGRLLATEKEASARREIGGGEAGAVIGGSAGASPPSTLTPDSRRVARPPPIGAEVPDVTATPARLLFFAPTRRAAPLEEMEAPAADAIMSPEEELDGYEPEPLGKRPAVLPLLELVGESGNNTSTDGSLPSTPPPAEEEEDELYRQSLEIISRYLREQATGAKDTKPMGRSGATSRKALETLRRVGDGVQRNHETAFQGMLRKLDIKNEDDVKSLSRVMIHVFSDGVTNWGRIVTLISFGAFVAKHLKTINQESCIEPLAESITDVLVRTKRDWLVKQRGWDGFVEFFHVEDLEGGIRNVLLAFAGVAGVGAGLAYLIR
- procedure.text: Inhibition of Mcl-1 by fluorescence polarisation, Method 1
- Type: binding
- details: fluorescence polarisation test; Method 2 values are underlined in the patent (underlining not visible here); read-out: IC50 (M) Mcl-1 FP

{"compound": "Cc1ncccc1-c1nccc(COc2ccccc2CC(Oc2ncnc3sc(-c4ccc(F)cc4)c(-c4ccc(OCCN5CCN(C)CC5)c(Cl)c4C)c23)C(=O)O)n1 (stereo not drawn) [Example 116]", "measurement.target": "Mcl-1 protein (UniProtKB primary accession number: Q07820) (Homo sapiens, UniProt Q07820)", "IC50": "2.9e-09 M"}
{"compound": "Cc1cc(-c2nccc(COc3ccccc3CC(Oc3ncnc4sc(-c5ccc(F)cc5)c(-c5ccc(OCCN(C)C)c(Cl)c5C)c34)C(=O)O)n2)ccn1 (stereo not drawn) [Example 136]", "measurement.target": "Mcl-1 protein (UniProtKB primary accession number: Q07820) (Homo sapiens, UniProt Q07820)", "IC50": "7.7e-09 M"}
{"compound": "Cc1c(-c2c(-c3ccco3)sc3ncnc(OC(Cc4ccccc4OCc4cc(-c5ccco5)nn4C)C(=O)O)c23)ccc(OCCN2CCN(C)CC2)c1Cl (stereo not drawn) [Example 228]", "measurement.target": "Mcl-1 protein (UniProtKB primary accession number: Q07820) (Homo sapiens, UniProt Q07820)", "IC50": "2.2e-08 M"}

// batch mode: one IC50 value per listed entry
1. Cc1c(-c2c(-c3ccc(F)cc3)sc3ncnc(OC(Cc4ccccc4OCc4ccnc(Cc5ccccc5)n4)C(=O)O)c23)ccc(OCCN2CCN(C)CC2)c1Cl (stereo not drawn) [Example 40]
2. COc1ccccc1CC(Oc1ncnc2sc(-c3ccco3)c(-c3ccc(OCC4CCCN4C)c(Cl)c3C)c12)C(=O)O (stereo not drawn) [Example 299]
3. Cc1c(-c2c(-c3ccc(Cl)o3)sc3ncnc(OC(Cc4ccccc4OCC(F)(F)F)C(=O)O)c23)ccc(OCCN2CCN(C)CC2)c1Cl (stereo not drawn) [Example 365]
4. COc1ccccc1CC(Oc1ncnc2sc(-c3ccco3)c(-c3ccc(OCC4CCCCN4C)c(Cl)c3C)c12)C(=O)O (single isomer, unassigned) [Example 309]
5. Cc1c(-c2c(-c3ccc(F)cc3)sc3ncnc(OC(Cc4ccccc4OCc4ccnn4C4CCCC4)C(=O)O)c23)ccc(OCCN2CCN(C)CC2)c1Cl (stereo not drawn) [Example 72]
6. COCCCSc1nccc(COc2ccccc2CC(Oc2ncnc3sc(-c4ccc(F)cc4)c(-c4ccc(OCCN5CCN(C)CC5)c(Cl)c4C)c23)C(=O)O)n1 (stereo not drawn) [Example 66]
7. Cc1c(-c2c(-c3ccc(F)o3)sc3ncnc(OC(Cc4ccccc4OCc4cc(C(F)(F)F)ccn4)C(=O)O)c23)ccc(OCCN2CCN(C)CC2)c1Cl (stereo not drawn) [Example 159]

Reply:
5.6e-09 M
1.6e-08 M
5.9e-09 M
1e-08 M
9.3e-09 M
4.6e-09 M
9.8e-09 M

// batch mode: one IC50 value per listed entry
1. COc1ccccc1CC(Oc1ncnc2sc(-c3ccco3)c(-c3ccc(OCCN4CCN(C(C)C)CC4)c(Cl)c3C)c12)C(=O)O (stereo not drawn) [Example 324]
2. COc1cc(COc2ccccc2CC(Oc2ncnc3sc(-c4ccc(F)o4)c(-c4ccc(OCCN5CCN(C)CC5)c(Cl)c4C)c23)C(=O)O)ncn1 (stereo not drawn) [Example 162]

Reply:
1. 1.5e-08 M
2. 9.9e-09 M

----------
- System: H929 multiple myeloma tumour line
- procedure.text: In vitro cytotoxicity, Microculture Tetrazolium Assay
- Type: cell-based
- details: Homo sapiens, NCI-H929, 48 h, H929 cells, 48 hours exposure, MTT; read-out: IC50 (μM) MTT H929
I'd be grateful if you could share measured IC50 for these entries.
Answers are plain numbers, in µM.

{"molecule": "Cc1c(-c2c(-c3ccco3)sc3ncnc(OC(Cc4ccccc4OCC4CCCC4)C(=O)O)c23)ccc(OCCN2CCN(C)CC2)c1Cl (stereo not drawn)", "IC50, µM": 0.55}
{"molecule": "COc1ccccc1-c1nccc(COc2ccccc2CC(Oc2ncnc3sc(-c4ccc(OCc5ccsc5)cc4)c(-c4ccc(OCCN5CCN(C)CC5)c(Cl)c4C)c23)C(=O)O)n1 (stereo not drawn)", "IC50, µM": 0.013}
{"molecule": "Cc1c(-c2c(-c3ccc(F)cc3)sc3ncnc(OC(Cc4ccccc4OCc4ccnc(-c5ccccc5F)n4)C(=O)O)c23)ccc(OCCN2CCN(C)CC2)c1Cl (stereo not drawn)", "IC50, µM": 0.005}
{"molecule": "Cc1c(-c2c(-c3ccco3)sc3ncnc(OC(Cc4ccccc4OCc4ccncc4)C(=O)O)c23)ccc(OCCN2CCN(C)CC2)c1Cl (stereo not drawn)", "IC50, µM": 0.069}

// batch mode: one IC50 value per listed entry
1. Cc1c(-c2c(-c3ccco3)sc3ncnc(OC(Cc4ccccc4OCc4cnccn4)C(=O)O)c23)ccc(OCCN2CCN(C)CC2)c1Cl (stereo not drawn)
2. COc1ccccc1CC(Oc1ncnc2sc(-c3cccc(C#N)c3)c(-c3ccc(OCCN4CCN(C)CC4)c(Cl)c3C)c12)C(=O)O (stereo not drawn)

Reply:
1: 0.051; 2: 0.497

----------
I'd be grateful if you could share measured IC50 for these entries.
- measurement.target: Mcl-1 protein (UniProtKB primary accession number: Q07820) (Homo sapiens, UniProt Q07820)
- procedure.text: Inhibition of Mcl-1 by fluorescence polarisation, Method 1
- Type: binding
- details: fluorescence polarisation; Method 1, or Method 2; read-out: IC50 (M) Mcl-1 FP
Numbers only, in M.

Before answering, review these 2 worked examples.
{"molecule": "CC#Cc1sc2ncnc(OC(Cc3ccccc3OCC)C(=O)O)c2c1-c1ccc(OCCN2CCN(C)CC2)c(Cl)c1C (stereo not drawn)", "attribute.measured": "IC50", "observed.value": "5.4e-09"}
{"molecule": "CCCCn1nccc1COc1ccccc1CC(Oc1ncnc2sc(CCCOC)c(-c3ccc(OCCN4CCN(C)CC4)c(Cl)c3C)c12)C(=O)O (stereo not drawn)", "attribute.measured": "IC50", "observed.value": "5.4e-09"}

Then this molecule:
Task item: For the molecule CCOC(=O)C(Cc1ccccc1OCc1ccnc(-c2ccccc2F)n1)Oc1ncnc2sc(-c3ccc(F)cc3)c(-c3ccc(OCCN4CCN(CC)CC4)c(Cl)c3C)c12 (stereo not drawn) , what IC50 is on record?
Reply: 1.91e-06

----------
- Tested on: H929 multiple myeloma tumour line
- procedure.text: In vitro cytotoxicity, Microculture Tetrazolium Assay
- Assay type: cell-based
- details: Homo sapiens, NCI-H929, 48 h, H929 cells, 48 hours exposure, MTT; read-out: IC50 (μM) MTT H929
IC50 strictly less than 0.04 µM = rule met. Otherwise rule not met.

{"compound": "Cc1c(-c2c(-c3ccco3)sc3ncnc(OC(Cc4ccccc4OCc4ccnn4CC(F)(F)F)C(=O)O)c23)ccc(OCCN2CCN(C)CC2)c1Cl (stereo not drawn)", "class": "rule met"}
{"compound": "COCCOc1ccccc1CC(Oc1ncnc2sc(-c3ccco3)c(-c3ccc(OCCN4CCN(C)CC4)c(Cl)c3C)c12)C(=O)O (stereo not drawn)", "class": "rule not met"}

Task item: Take the compound Cc1c(-c2c(-c3ccco3)sc3ncnc(OC(Cc4ccccc4OCc4ccc(F)cn4)C(=O)O)c23)ccc(OCCN2CCN(C)CC2)c1Cl (stereo not drawn) and say whether its IC50 is less than 0.04 µM.
Reply: rule not met

Task item: Take the compound Cc1c(-c2c(-c3cccc(F)c3F)sc3ncnc(OC(Cc4ccccc4OCc4ccnn4C(C)(C)C)C(=O)O)c23)ccc(OCCN(C)C)c1Cl (stereo not drawn) and say whether its IC50 is less than 0.04 µM.
Reply: rule met

Task item: Take the compound Cc1c(-c2c(-c3ccco3)sc3ncnc(OC(Cc4ccccc4NC(=O)OC(C)(C)C)C(=O)O)c23)ccc(OCCN2CCN(C)CC2)c1Cl (stereo not drawn) and say whether its IC50 is less than 0.04 µM.
Reply: rule not met

----------
- Test system: H929 multiple myeloma tumour line
- procedure.text: In vitro cytotoxicity, Microculture Tetrazolium Assay
- Format: cell-based
- details: Homo sapiens, NCI-H929, 48 h, H929 cells, 48 hours exposure, MTT; read-out: IC50 (μM) MTT H929
I'd be grateful if you could share measured IC50 for these entries.
Answers are plain numbers, in µM.

{"molecule": "Cc1c(-c2c(-c3ccc(Cl)o3)sc3ncnc(OC(Cc4ccccc4OCC(F)(F)F)C(=O)O)c23)ccc(OCCN2CCN(C)CC2)c1Cl (stereo not shown)", "attribute.measured": "IC50", "observed.value": 0.026}

// batch mode: one IC50 value per listed entry
1. CCCCn1nccc1COc1ccccc1CC(Oc1ncnc2sc(-c3ccc(OCCN4CCOCC4)nc3)c(-c3ccc(OCCN4CCN(C)CC4)c(Cl)c3C)c12)C(=O)O (stereo not shown)
2. Cc1c(-c2c(-c3ccn(C)n3)sc3ncnc(OC(Cc4ccccc4)C(=O)O)c23)ccc(OCCN2CCN(C)CC2)c1Cl (stereo not shown)
3. Cc1c(-c2c(-c3ccsc3)sc3ncnc(OC(Cc4ccccc4)C(=O)O)c23)ccc(OCCN2CCN(C)CC2)c1Cl (stereo not shown)
4. CC#Cc1sc2ncnc(OC(Cc3ccccc3OC)C(=O)O)c2c1-c1ccc(OCCN2CCN(C)CC2)c(F)c1C (stereo not shown)
5. COc1nccc(COc2ccccc2CC(Oc2ncnc3sc(-c4cccc(F)c4F)c(-c4ccc(OCCN5CCN(C)CC5)c(Cl)c4C)c23)C(=O)O)n1 (stereo not shown)
6. Cc1c(-c2c(-c3ccco3)sc3ncnc(OC(Cc4ccccc4OCc4ccnn4C(C)C)C(=O)O)c23)ccc(OCCN2CCN(C)CC2)c1Cl (stereo not shown)
7. CCc1sc2ncnc(OC(Cc3ccccc3)C(=O)O)c2c1-c1ccc(OCCc2ccncc2)c(Cl)c1C (stereo not shown)
8. CCCCCn1nccc1COc1ccccc1CC(Oc1ncnc2sc(-c3ccc(F)cc3)c(-c3ccc(OCCN4CCN(C)CC4)c(Cl)c3C)c12)C(=O)O (stereo not shown)

Reply:
0.095
8.29
0.639
3.66
0.03
0.018
15.7
0.063

// batch mode: one IC50 value per listed entry
1. CCOc1nccc(COc2ccccc2CC(Oc2ncnc3sc(-c4ccc(F)cc4)c(-c4ccc(OCCN(C)C)c(Cl)c4C)c23)C(=O)O)n1 (stereo not shown)
2. Cc1c(-c2c(-c3ccc(OCc4ccn(C)n4)cc3)sc3ncnc(OC(Cc4ccccc4OCc4ccnn4CC(F)(F)F)C(=O)O)c23)ccc(OCCN2CCN(C)CC2)c1Cl (stereo not shown)
3. CCCCn1nccc1COc1ccccc1CC(Oc1ncnc2sc(-c3ccc(OCCOC)nc3)c(-c3ccc(OCCN4CCN(C)CC4)c(Cl)c3C)c12)C(=O)O (stereo not shown)
4. COc1ccccc1CC(Oc1ncnc2sc(-c3cccc(C(F)(F)F)c3)c(-c3ccc(OCCN4CCN(C)CC4)c(Cl)c3C)c12)C(=O)O (stereo not shown)

Reply:
[0.065, 0.056, 0.109, 1.5]
